Reference for the values: patent US20120165310A1

- TARGET OF ASSAY: IGF-1R (Homo sapiens)
- Construct: expressed in transfected cells; host or cells: Hek293 (Hek293-IGF1R)
- ASSAY METHOD TEXT: Cellular IGF-1R assay: capture ELISA (MSD) of receptor phosphorylation in Hek293 cells
- Assay type: cell-based
- CONDITION INFO: Hek293-IGF1R cells, 1 h pre-incubation, 10 min IGF stimulation, pIGF1R capture ELISA
ENDPOINT: IC50 (nM)

In the examples that follow, each entry is paired with its recorded IC50.
{"MOLECULE": "CN1CCC(N2CC[C@@H](n3cc(-c4cccc(OCC56CCC(CC5)O6)c4)c4c(N)ncnc43)C2)CC1", "ENDPOINT": "IC50", "EXPERIMENTAL VALUE": 80}
{"MOLECULE": "Nc1ncnc2c1c(-c1cccc(OCC34CCC(CC3)O4)c1)cn2[C@H]1C[C@@H](N2CC3CC2CN3CCO)C1 (relative stereo)", "ENDPOINT": "IC50", "EXPERIMENTAL VALUE": 303}

I. NC[C@H]1C[C@@H](n2cc(-c3cccc(OCC45CCC(CC4)O5)c3)c3c(N)ncnc32)C1 (relative stereo)
II. Nc1ncnc2c1c(-c1cccc(OCC34CCC(CC3)O4)c1)cn2[C@H]1CC[C@@H](N2CC[C@@H](O)C2)CC1
III. NC(=O)[C@H]1CCCN1C[C@H]1C[C@@H](n2cc(-c3cccc(OCC45CCC(CC4)O5)c3)c3c(N)ncnc32)C1
IV. Nc1ncnc2c1c(-c1cccc(OCC34CCC(CC3)O4)c1)cn2C1CC(CN2CC(O)C2)C1 (stereo not shown)
V. Nc1ncnc2c1c(-c1cccc(OCC34CCC(CC3)O4)c1)cn2C1CN(C2CS(=O)(=O)C2)C1
Arrange items by their IC50 values in increasing order. Please respond with the labels ordered as the question requires.
III, I, IV, II, V
(III: 8 nM, I: 24 nM, IV: 38 nM, II: 150 nM, V: 518 nM)

====

- TARGET OF ASSAY: IGF-1R (Homo sapiens)
- ASSAY METHOD TEXT: Cellular IGF-1R assay: capture ELISA (MSD) of receptor phosphorylation in Hek293 cells
- CONDITION INFO: Hek293-IGF1R cells, 1 h pre-incubation, 10 min IGF stimulation, pIGF1R capture ELISA
pIC50: −log10 of the molar value.
ENDPOINT: pIC50

I. CC(=O)N[C@H]1C[C@@H](n2cc(-c3cccc(OCC45CCC(CC4)O5)c3)c3c(N)ncnc32)C1 (relative stereo)
II. NC(=O)[C@@H]1CCCN1C[C@]1(O)C[C@@H](n2cc(-c3cccc(OCC45CCC(CC4)O5)c3)c3c(N)ncnc32)C1
III. Nc1ncnc2c1c(-c1cccc(OCC34CCC(CC3)O4)c1)cn2[C@H]1C[C@@]2(COC(=O)O2)C1
Order the 3 listed items from lowest to highest according to pIC50. Submit the labels in the order that the ranking request calls for.
I, III, II
(I: 6.51, III: 7.00, II: 7.48)

a. Nc1ncnc2c1c(-c1cccc(OCC34CCC(CC3)O4)c1)cn2[C@H]1CC[C@H](c2cnco2)CC1
b. Nc1ncnc2c1c(-c1cccc(OCC34CCC(CC3)O4)c1)cn2C1CCC(N2CCS(=O)(=O)CC2)CC1 (stereo not shown)
c. CC1(C)CCC(COc2cccc(-c3cn([C@H]4C[C@@H](CN5CCC(F)CC5)C4)c4ncnc(N)c34)c2)O1 (single isomer, unassigned) [Example 59]
d. Nc1ncnc2c1c(-c1cccc(OCC34CCC(CC3)O4)c1)cn2C1CC(O)(CN2CCC(O)C2)C1 (single isomer, unassigned) [Example 204]
Arrange by pIC50, high to low. // list labels; follow requested order
c, d, b, a
(c: 7.74, d: 7.28, b: 6.97, a: 6.57)

====

- TARGET OF ASSAY: EphB4 (Homo sapiens, UniProt P54760)
- Sequence (P54760 16-987, species assumed): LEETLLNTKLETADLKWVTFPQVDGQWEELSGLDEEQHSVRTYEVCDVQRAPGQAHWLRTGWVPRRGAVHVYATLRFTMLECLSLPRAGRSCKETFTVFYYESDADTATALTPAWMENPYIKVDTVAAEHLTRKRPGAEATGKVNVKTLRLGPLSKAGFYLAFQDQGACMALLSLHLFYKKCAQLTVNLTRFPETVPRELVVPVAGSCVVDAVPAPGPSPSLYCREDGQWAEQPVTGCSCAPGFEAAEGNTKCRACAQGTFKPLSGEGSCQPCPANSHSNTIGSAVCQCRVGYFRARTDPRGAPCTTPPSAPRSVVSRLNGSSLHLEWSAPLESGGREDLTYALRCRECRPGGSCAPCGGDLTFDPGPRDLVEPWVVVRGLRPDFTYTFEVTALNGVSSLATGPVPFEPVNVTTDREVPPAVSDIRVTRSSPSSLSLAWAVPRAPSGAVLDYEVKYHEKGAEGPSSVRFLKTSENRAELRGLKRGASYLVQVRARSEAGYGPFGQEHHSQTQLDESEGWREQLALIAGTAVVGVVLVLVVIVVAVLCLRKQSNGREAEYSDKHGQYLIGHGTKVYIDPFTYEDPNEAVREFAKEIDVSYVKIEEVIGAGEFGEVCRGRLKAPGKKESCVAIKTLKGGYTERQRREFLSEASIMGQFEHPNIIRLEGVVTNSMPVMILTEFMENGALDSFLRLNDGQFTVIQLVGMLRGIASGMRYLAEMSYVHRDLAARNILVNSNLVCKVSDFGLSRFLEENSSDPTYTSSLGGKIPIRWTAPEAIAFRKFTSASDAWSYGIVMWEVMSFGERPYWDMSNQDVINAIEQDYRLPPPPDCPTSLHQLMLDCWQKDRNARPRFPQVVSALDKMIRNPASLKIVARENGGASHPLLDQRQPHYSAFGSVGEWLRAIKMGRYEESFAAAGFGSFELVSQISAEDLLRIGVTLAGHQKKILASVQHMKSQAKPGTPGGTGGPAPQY
- ASSAY METHOD TEXT: Kinase activity test, parent compound vs phenol metabolite X
- Format: biochemical
ENDPOINT: IC50 (nM)
Write the value in nM as a bare number.

Consider the compound Nc1ncnc2c1c(-c1cccc(O)c1)cn2[C@H]1C[C@@H](CN2CCC2)C1 [Phenol metabolite X] and give its measured IC50.
9

====

- TARGET OF ASSAY: IGF-1R (Homo sapiens, UniProt P08069)
- Sequence (P08069 31-1367): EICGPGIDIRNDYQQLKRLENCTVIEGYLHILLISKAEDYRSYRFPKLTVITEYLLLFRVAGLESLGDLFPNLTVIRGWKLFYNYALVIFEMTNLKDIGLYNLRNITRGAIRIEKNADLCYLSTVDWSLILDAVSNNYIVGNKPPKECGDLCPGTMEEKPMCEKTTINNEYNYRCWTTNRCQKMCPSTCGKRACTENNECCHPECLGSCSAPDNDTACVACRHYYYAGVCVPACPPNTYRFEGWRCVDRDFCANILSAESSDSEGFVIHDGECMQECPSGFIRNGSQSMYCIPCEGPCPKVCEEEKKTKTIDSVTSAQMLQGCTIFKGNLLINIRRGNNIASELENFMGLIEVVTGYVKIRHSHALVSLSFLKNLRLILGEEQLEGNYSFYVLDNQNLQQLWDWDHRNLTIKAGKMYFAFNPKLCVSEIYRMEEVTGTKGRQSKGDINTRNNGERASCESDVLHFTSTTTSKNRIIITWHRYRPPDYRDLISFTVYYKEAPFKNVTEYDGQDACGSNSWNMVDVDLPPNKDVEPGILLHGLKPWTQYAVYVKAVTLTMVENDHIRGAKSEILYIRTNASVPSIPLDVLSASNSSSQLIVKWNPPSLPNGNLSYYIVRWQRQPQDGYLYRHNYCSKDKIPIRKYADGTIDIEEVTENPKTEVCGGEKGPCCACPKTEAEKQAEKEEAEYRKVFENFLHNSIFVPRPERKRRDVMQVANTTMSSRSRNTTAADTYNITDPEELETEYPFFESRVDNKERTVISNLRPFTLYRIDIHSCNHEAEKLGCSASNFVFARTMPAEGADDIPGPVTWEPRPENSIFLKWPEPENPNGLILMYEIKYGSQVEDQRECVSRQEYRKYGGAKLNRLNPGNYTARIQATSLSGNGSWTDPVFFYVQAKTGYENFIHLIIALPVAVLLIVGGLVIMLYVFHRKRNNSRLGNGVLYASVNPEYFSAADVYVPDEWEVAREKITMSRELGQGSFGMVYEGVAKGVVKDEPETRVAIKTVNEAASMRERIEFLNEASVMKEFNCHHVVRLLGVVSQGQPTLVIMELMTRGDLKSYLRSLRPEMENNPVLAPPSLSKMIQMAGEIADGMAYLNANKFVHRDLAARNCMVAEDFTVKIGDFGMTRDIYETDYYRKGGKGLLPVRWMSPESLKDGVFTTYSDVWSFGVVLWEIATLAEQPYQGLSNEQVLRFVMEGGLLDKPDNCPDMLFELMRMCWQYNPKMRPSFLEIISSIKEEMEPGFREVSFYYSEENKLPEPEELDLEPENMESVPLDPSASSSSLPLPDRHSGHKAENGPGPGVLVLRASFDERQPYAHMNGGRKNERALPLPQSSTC
- ASSAY METHOD TEXT: Cellular IGF-1R assay: capture ELISA (MSD) of receptor phosphorylation in Hek293 cells
- CONDITION INFO: Hek293-IGF1R cells, 1 h pre-incubation, 10 min IGF stimulation, pIGF1R capture ELISA
ENDPOINT: IC50 (nM)

Some molecules with recorded IC50:
{"MOLECULE": "Nc1ncnc2c1c(-c1cccc(OCC34CCC(CC3)O4)c1)cn2[C@H]1CC[C@@H](N2CCC(F)(F)CC2)CC1", "ENDPOINT": "IC50", "EXPERIMENTAL VALUE": 224}
{"MOLECULE": "Nc1ncnc2c1c(-c1cccc(OCC34CCC(CC3)O4)c1)cn2C1CC(CN2CC[C@@H](O)C2)C1 (stereo partly shown)", "ENDPOINT": "IC50", "EXPERIMENTAL VALUE": 15}
{"MOLECULE": "Nc1ncnc2c1c(-c1cccc(OCC34CCC(CC3)O4)c1)cn2[C@H]1C[C@@H](CN2CC[C@@H](O)C2)C1", "ENDPOINT": "IC50", "EXPERIMENTAL VALUE": 18}
{"MOLECULE": "Nc1ncnc2c1c(-c1cccc(OCC34CCC(CC3)O4)c1)cn2[C@H]1CC[C@H](N2CC[C@@H](F)C2)CC1", "ENDPOINT": "IC50", "EXPERIMENTAL VALUE": 419}

1. Nc1ncnc2c1c(-c1cccc(OCC34CCC(CC3)O4)c1)cn2[C@H]1CC[C@@H](NC(=O)C2CCOCC2)CC1
2. Nc1ncnc2c1c(-c1cccc(OCC34CCC(CC3)O4)c1)cn2C1CCC2(CC1)CNC(=O)O2 (stereo not shown)
3. Nc1ncnc2c1c(-c1cccc(OCC34CCC(CC3)O4)c1)cn2C1CC(O)(CN2CCCC2CO)C1 (single isomer, unassigned) [Example 200]
Which order do these items take when sorted by rising IC50? List them. API: response body holds the labels in the requested order.
1, 3, 2
(1: 21 nM, 3: 263 nM, 2: 543 nM)

====

- TARGET OF ASSAY: IGF-1R (Homo sapiens, UniProt P08069)
- Construct: expressed in transfected cells; host or cells: Hek293 (Hek293-IGF1R)
- ASSAY METHOD TEXT: Cellular IGF-1R assay: capture ELISA (MSD) of receptor phosphorylation in Hek293 cells
- Type: cell-based
- CONDITION INFO: Hek293-IGF1R cells, 1 h pre-incubation, 10 min IGF stimulation, pIGF1R capture ELISA
ENDPOINT: IC50 (nM)

Examples with their reported IC50 follow.
{"COMPOUND": "Nc1ncnc2c1c(-c1cccc(OCC34CCC(CC3)O4)c1)cn2C1CCC(CN2CCC(O)C2)CC1 (stereo not drawn)", "EXPERIMENTAL VALUE": 50}
{"COMPOUND": "NC(=O)[C@@H]1CCCN1C[C@H]1C[C@H](n2cc(-c3cccc(OCC45CCC(CC4)O5)c3)c3c(N)ncnc32)C1", "EXPERIMENTAL VALUE": 5}
{"COMPOUND": "Nc1ncnc2c1c(-c1cccc(OCC34CCC(CC3)O4)c1)cn2[C@H]1C[C@@]2(CNC(=O)CO2)C1", "EXPERIMENTAL VALUE": 364}
{"COMPOUND": "NC(=O)[C@@H]1CCCN1C[C@H]1C[C@H](n2cc(-c3cccc(OCC4CCCO4)c3)c3c(N)ncnc32)C1 (stereo partly drawn)", "EXPERIMENTAL VALUE": 47}
{"COMPOUND": "Nc1ncnc2c1c(-c1cccc(OCC3CCCCO3)c1)cn2C1CC(CN2CC[C@@H](F)C2)C1 (stereo partly drawn)", "EXPERIMENTAL VALUE": 345}
{"COMPOUND": "CC1(C)CCC(COc2cccc(-c3cn(C4CC(CN5CCS(=O)(=O)CC5)C4)c4ncnc(N)c34)c2)O1 (stereo not drawn)", "EXPERIMENTAL VALUE": 17}

a. CC1(C)CCC(COc2cccc(-c3cn([C@H]4CC[C@@H](N5CCOCC5)CC4)c4ncnc(N)c34)c2)O1 (relative stereo)
b. C[C@]1(O)C[C@@H](c2nc(-c3cccc(OCC45CCC(CC4)O5)c3)c3c(N)nccn32)C1
Min IC50? a | b # respond with the chosen item's label
a
(a: 128 nM, b: 485 nM)

====

- TARGET OF ASSAY: IGF-1R (Homo sapiens)
- ASSAY METHOD TEXT: Cellular IGF-1R assay: capture ELISA (MSD) of receptor phosphorylation in Hek293 cells
- CONDITION INFO: Hek293-IGF1R cells, 1 h pre-incubation, 10 min IGF stimulation, pIGF1R capture ELISA
ENDPOINT: IC50 (nM)

Below, 3 compounds whose answers are already recorded.
{"COMPOUND": "Nc1ncnc2c1c(-c1cccc(OCC34CCC(CC3)O4)c1)cn2[C@H]1CC[C@@H](CN2CCNCC2)CC1 [Example 136]", "UNIT ABBREV": "nM", "IC50": 597}
{"COMPOUND": "CCOC(=O)c1nccn1C[C@H]1C[C@@H](n2cc(-c3cccc(OCC45CCC(CC4)O5)c3)c3c(N)ncnc32)C1 [Example 180]", "UNIT ABBREV": "nM", "IC50": 57}
{"COMPOUND": "Nc1ncnc2c1c(-c1cccc(OCC34CCC(CC3)O4)c1)cn2[C@H]1C[C@@H](N2CCN(CCO)CC2)C1 (relative stereo) [Example 172]", "UNIT ABBREV": "nM", "IC50": 21}

a. CC1(C)CCC(COc2cccc(-c3cn([C@H]4C[C@@H](CN5CCC[C@H]5C(N)=O)C4)c4ncnc(N)c34)c2)O1 (stereo partly drawn) [Example 50]
b. CC1(C)CCC(COc2cccc(-c3cn(C4CC(CN5CCC(F)C5)C4)c4ncnc(N)c34)c2)O1 (single isomer, unassigned) [Example 39]
c. CC1(C)CCC(COc2cccc(-c3cn([C@H]4C[C@@H](CN5CC[C@@H](O)C5)C4)c4ncnc(N)c34)c2)O1 (stereo partly drawn) [Example 58]
Descending sort on IC50 required. Submit the labels in the order that the ranking request calls for.
b, c, a
(b: 224 nM, c: 50 nM, a: 8 nM)
